Property: responders at 1 mg/kg; scope: individual compounds
- System: U 46619-caused lung embolism
- EXPERIMENT_DESCRIPTION: Prevention of the U 46619-caused lung embolism (survival)
- Format: in vivo, male NMRI mice
- CONDITION_PARAMETERS: po, mouse, stomach probe, U 46619 injected 4 h later (800-1000 μg/kg, tail vein), read-out: survival rate of mouse 1 mg/kg after 4 h
QUANTITY_MEASURED: responders at 1 mg/kg (%)

compound="O=C(COc1cccc(CCNS(=O)(=O)c2ccc(Cl)cc2)c1)N1CCCCC1 [Ex. 1 d]" quantity_measured="responders at 1 mg/kg" test_result=100
compound="NCCCCc1ccc(CCNS(=O)(=O)c2ccc(Cl)cc2)cc1 [Ex. 4 s]" quantity_measured="responders at 1 mg/kg" test_result=90
compound="CCNC(=O)COc1cccc(CCNS(=O)(=O)c2ccc(Cl)cc2)c1 [Ex. 2 a]" quantity_measured="responders at 1 mg/kg" test_result=100
compound="O=C(COc1ccc(CCNS(=O)(=O)c2ccc(Cl)cc2)cc1)Nc1cccnc1 [Ex. 1 r]" quantity_measured="responders at 1 mg/kg" test_result=90
compound="NCCOc1cccc(CCNS(=O)(=O)c2ccc(Cl)cc2)c1 [Ex. 4]" quantity_measured="responders at 1 mg/kg" test_result=100
compound="O=C(COc1cccc(CCNS(=O)(=O)c2ccc(Cl)cc2)c1)N(CCO)CCO [Ex. 1 g]" quantity_measured="responders at 1 mg/kg" test_result=100
compound="NCCCc1ccc(CCNS(=O)(=O)c2ccc(Cl)cc2)cc1 [Ex. 4 m]" quantity_measured="responders at 1 mg/kg" test_result=100
compound="O=C(COc1cccc(CCNS(=O)(=O)c2ccc(Cl)cc2)c1)NCCO [Ex. 1 f]" quantity_measured="responders at 1 mg/kg" test_result=100
compound="NCCc1ccc(CCNS(=O)(=O)c2ccc(Cl)cc2)cc1 [Ex. 5]" quantity_measured="responders at 1 mg/kg" test_result=100
